Experiment: AUC(0 to infinity) in ICR mouse at 10 mg/kg, po measured upto 24 hrs by LC-MS/MS analysis
Assay type: ADME, organism-based
Conditions: in vivo
readout_kind: AUC(0-inf) (ng·h/mL)
Could you give me the number in ng·h/mL? Just the number is fine.

Can you look up the measured AUC(0-inf) of COc1cc2nc(C)nc(N[C@H](C)c3cc(N)cc(C(F)(F)F)c3)c2cc1OCCCCC(=O)N[C@H](C(=O)N1C[C@H](O)C[C@H]1C(=O)NCc1ccc(-c2scnc2C)cc1)C(C)(C)C for me?
4280

---

Provide the recorded Activity for the entries that follow.
Biological target: Protein cereblon/Son of sevenless homolog 1 (Homo sapiens) (UniProt Q07889+Q96SW2)
Sequence (Q07889 whole entry, looked up): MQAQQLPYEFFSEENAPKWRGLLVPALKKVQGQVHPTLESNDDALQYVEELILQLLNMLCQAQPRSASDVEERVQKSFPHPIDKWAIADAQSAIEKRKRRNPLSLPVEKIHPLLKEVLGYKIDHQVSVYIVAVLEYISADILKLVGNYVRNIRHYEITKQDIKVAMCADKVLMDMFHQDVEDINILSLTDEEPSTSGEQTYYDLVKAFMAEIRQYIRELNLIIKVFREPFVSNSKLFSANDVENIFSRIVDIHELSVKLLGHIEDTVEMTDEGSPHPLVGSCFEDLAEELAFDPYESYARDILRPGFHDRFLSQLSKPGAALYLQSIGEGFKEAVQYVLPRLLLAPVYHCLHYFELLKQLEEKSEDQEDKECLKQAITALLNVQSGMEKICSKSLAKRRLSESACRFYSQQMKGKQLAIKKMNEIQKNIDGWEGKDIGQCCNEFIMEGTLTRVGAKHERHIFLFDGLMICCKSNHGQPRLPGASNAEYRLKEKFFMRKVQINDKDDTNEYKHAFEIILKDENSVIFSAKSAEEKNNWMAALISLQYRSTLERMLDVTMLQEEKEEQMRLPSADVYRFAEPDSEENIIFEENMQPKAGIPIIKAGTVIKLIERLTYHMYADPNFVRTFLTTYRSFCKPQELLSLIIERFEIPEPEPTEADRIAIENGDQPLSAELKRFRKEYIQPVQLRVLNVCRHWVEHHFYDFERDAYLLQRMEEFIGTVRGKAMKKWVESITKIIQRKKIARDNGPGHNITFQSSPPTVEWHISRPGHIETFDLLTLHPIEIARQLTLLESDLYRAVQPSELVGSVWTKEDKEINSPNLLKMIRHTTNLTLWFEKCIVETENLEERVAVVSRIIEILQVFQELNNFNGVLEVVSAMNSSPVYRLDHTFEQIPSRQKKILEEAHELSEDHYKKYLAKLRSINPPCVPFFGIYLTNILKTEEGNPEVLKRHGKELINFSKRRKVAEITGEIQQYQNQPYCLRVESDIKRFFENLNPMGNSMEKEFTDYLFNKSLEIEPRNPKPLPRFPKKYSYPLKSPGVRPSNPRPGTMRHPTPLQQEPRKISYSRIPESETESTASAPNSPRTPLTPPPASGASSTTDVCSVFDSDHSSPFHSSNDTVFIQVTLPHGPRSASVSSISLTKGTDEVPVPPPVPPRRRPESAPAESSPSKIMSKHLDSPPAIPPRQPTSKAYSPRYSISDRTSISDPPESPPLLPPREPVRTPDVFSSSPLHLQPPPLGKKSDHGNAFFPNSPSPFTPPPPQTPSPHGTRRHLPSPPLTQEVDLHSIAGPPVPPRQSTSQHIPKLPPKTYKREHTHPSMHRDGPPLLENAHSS
Sequence (Q96SW2 whole entry, looked up): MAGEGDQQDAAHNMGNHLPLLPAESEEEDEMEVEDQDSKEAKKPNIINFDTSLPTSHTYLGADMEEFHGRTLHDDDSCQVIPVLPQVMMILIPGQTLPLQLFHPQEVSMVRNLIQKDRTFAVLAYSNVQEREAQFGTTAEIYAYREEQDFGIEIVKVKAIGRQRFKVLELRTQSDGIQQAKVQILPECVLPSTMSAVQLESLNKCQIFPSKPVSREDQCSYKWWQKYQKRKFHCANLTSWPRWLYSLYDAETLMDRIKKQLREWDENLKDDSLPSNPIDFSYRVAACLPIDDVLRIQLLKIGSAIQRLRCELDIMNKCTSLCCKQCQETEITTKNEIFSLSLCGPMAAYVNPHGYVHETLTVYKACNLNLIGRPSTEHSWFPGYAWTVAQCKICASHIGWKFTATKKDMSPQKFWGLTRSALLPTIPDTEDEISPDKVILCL
Assay: Protac activity at CRBN/SOS1 in human PANC-1 cells assessed as SOS1 degradation at 1 uM by Western blotting analysis
Type: cell-based
Report field: quantity (unit follows the number).

Can you look up the measured Activity of COc1cc2nc(C)nc(C[C@H](C)c3cc(-c4ccccc4CNCCCCCCCCCNc4ccc5c(c4)C(=O)N(C4CCC(=O)NC4=O)C5=O)cs3)c2cc1OC (some centres undefined) for me?
10.3%

Try COc1cc2nc(C)nc(N[C@H](C)c3cc(-c4ccccc4CNCCCCCCCNc4ccc5c(c4)C(=O)N(C4CCC(=O)NC4=O)C5=O)cs3)c2cc1OC (some centres undefined) next.
0%

Try COc1cc2nc(C)nc(N[C@H](C)c3cc(-c4ccccc4CNCCCCCCCCNc4ccc5c(c4)C(=O)N(C4CCC(=O)NC4=O)C5=O)cs3)c2cc1OC (some centres undefined) next.
1.3%

Try COc1cc2nc(C)nc(N[C@H](C)c3cc(-c4ccccc4CNCCCCCCNc4ccc5c(c4)C(=O)N(C4CCC(=O)NC4=O)C5=O)cs3)c2cc1OC (some centres undefined) next.
0%

---

Target: Protein cereblon/Son of sevenless homolog 1 (Homo sapiens) (UniProt Q07889+Q96SW2)
Assay: Protac activity at CRBN/SOS1 in human K562 cells assessed as SOS1 degradation at 10 uM by Western blotting analysis relative to control
Format: cell-based
readout_kind: Activity (%)
Could you give me the number in %? Just the number is fine.

Can you look up the measured Activity of COc1cc2nc(C)nc(C[C@H](C)c3cc(-c4ccccc4CNCCCCCCCCCNc4ccc5c(c4)C(=O)N(C4CCC(=O)NC4=O)C5=O)cs3)c2cc1OC (some centres undefined) for me?
89.1

Try COc1cc2nc(C)nc(N[C@H](C)c3cc(-c4ccccc4CNCCCCCCCCNc4ccc5c(c4)C(=O)N(C4CCC(=O)NC4=O)C5=O)cs3)c2cc1OC (some centres undefined) next.
46.7

Try COc1cc2nc(C)nc(N[C@H](C)c3cc(-c4ccccc4CNCCCCCCCNc4ccc5c(c4)C(=O)N(C4CCC(=O)NC4=O)C5=O)cs3)c2cc1OC (some centres undefined) next.
72.1

Try COc1cc2nc(C)nc(N[C@H](C)c3cc(-c4ccccc4CNCCCCCCNc4ccc5c(c4)C(=O)N(C4CCC(=O)NC4=O)C5=O)cs3)c2cc1OC (some centres undefined) next.
37.7

---

Provide the recorded Activity for the entries that follow.
Target: Protein cereblon/Son of sevenless homolog 1 (Homo sapiens) (UniProt Q07889+Q96SW2)
Assay: Protac activity at CRBN/SOS1 in human K562 cells assessed as SOS1 degradation at 1 uM by Western blotting analysis relative to control
Format: cell-based
Could you give me the number in %? Just the number is fine.

Can you look up the measured Activity of COc1cc2nc(C)nc(N[C@H](C)c3cc(-c4ccccc4CNCCCCCCNc4ccc5c(c4)C(=O)N(C4CCC(=O)NC4=O)C5=O)cs3)c2cc1OC (some centres undefined) for me?
0

Try COc1cc2nc(C)nc(C[C@H](C)c3cc(-c4ccccc4CNCCCCCCCCCNc4ccc5c(c4)C(=O)N(C4CCC(=O)NC4=O)C5=O)cs3)c2cc1OC (some centres undefined) next.
0

Try COc1cc2nc(C)nc(N[C@H](C)c3cc(-c4ccccc4CNCCCCCCCNc4ccc5c(c4)C(=O)N(C4CCC(=O)NC4=O)C5=O)cs3)c2cc1OC (some centres undefined) next.
35.4

Try COc1cc2nc(C)nc(N[C@H](C)c3cc(-c4ccccc4CNCCCCCCCCNc4ccc5c(c4)C(=O)N(C4CCC(=O)NC4=O)C5=O)cs3)c2cc1OC (some centres undefined) next.
35.6

Recorded values, source ChEMBL document CHEMBL5528047.
